- assayTarget: full-length beta-Catenin (Uniprot ID P35222) (Homo sapiens (Human)) (UniProt P35222)
- methodNotes: fluorescence polarization competition; full-length beta-catenin, competitor 5FAM-TCF4(10-53) probe
Starred links: 1 amine or outer side, 2 acyl side, 3 side chain; linkers in the order of their positions; H or OH if unused. Positions of bridges follow the written chain, without caps; N, C: chain ends. Non-standard residues stand in square brackets, D forms with d. Primed or numbered codes have the meaning given here. *: point of attachment. PyrS2″ = (S)-3-amino-1-((pent-4-en-1-yloxy)carbonyl)pyrrolidine-3-carboxylic acid (stapling residue), C=CCCCOC(=O)N1CC[C@@](N[*:1])(C(=O)[*:2])C1; B5(5) = 2,2-bis(4-pentenyl)glycine, 2-amino-2-(pent-4-en-1-yl)hept-6-enoic acid (stitching residue), C=CCCCC(CCCC=C)(N[*:1])C(=O)[*:2]; PyrS2 = (S)-3-amino-1-((pent-4-en-1-yloxy)carbonyl)pyrrolidine-3-carboxylic acid, C=CCCCOC(=O)N1CC[C@@](N[*:1])(C(=O)[*:2])C1; B5(3) = 2,2-bis(4-pentenyl)glycine (stitching residue), C=CCCCC(CCCC=C)(N[*:1])C(=O)[*:2]; Phe(2-Cl) = N[C@@H](Cc1ccccc1Cl)C(=O)O; Bta = N[C@@H](Cc1csc2ccccc12)C(=O)O; αAllylPro = C=CC[C@@]1(C(=O)O)CCCN1; Azidoacetyl = [N-]=[N+]=NCC(=O)*; tBuAla = CC(C)(C)C[C@H](N)C(=O)O; Thr(ol) = C[C@@H](O)[C@H](N)CO
Listed next: entries and their corresponding EC50.
Give the value, in units of nM, as a plain number.

Ask | // query EC50 value for entry Ac-[αAllylPro]D[tBuAla][B5(5)]DTAAFT[PyrS2″][Phe(2-Cl)][Bta][Thr(ol)] (staple 1-4, 4-11) [I-1309]
Reply | 59

Ask | // query EC50 value for entry Azidoacetyl-[αAllylPro]D[tBuAla][B5(5)]DDAAFN[PyrS2]F[Bta]H-NH2 (staple 1-4, 4-11) [I-1055]
Reply | 7

Ask | // query EC50 value for entry Ac-[αAllylPro]D[tBuAla][B5(3)]DEAAFL[PyrS2″][Phe(2-Cl)][Bta]T-NH2 (staple 1-4, 4-11; not fully specified; printed as Ac-PL3-Asp-Npg-B5-Asp-Glu-Ala-Ala-Phe-Leu-PyrS2-2C1F-BztA-Thr-NH2) [I-1070]
Reply | 1020
